system: MCF7; test: NCI tumour cell line growth inhibition, 48 h
Activity calls are given as the source filed them. No stated cut-off is given here; in the data, active = GI50 up to about 1.1 µM and inactive = higher.
Write down one outcome, taken from active, inactive

>>> df
                                   compound  assigned_class
0  CC(C)(C)OC(=O)N1[C@@H]2Cc3ccc(N)cc3[C@@]1(C)c1ccccc12        inactive
1  S=C(N/N=C\c1ccccn1)N(Cc1ccccn1)Cc1ccccn1          active
2             [O-][S+]1c2ccccc2SCSc2ccccc21        inactive

Prompt: What did this assay record as the result for CCc1nnc2sc(-c3ccc(-c4ccccc4[N+](=O)[O-])o3)nn12 ?
Response: inactive

Prompt: Next compound: Clc1cc2nn(C3CCCCO3)nc2cc1Cl (centres undefined)
Response: inactive

###

test system: OVCAR-3; experiment: NCI tumour cell line growth inhibition, 48 h
Active and inactive are the calls of the source. Cut-off read from the data, not from the text of the source: active = GI50 up to about 1.1 µM and inactive = higher.
Write down one outcome, taken from active, inactive

Check out these entries, answers already filled in.
compound	assigned class
O=S(=O)(c1cccc(C(F)(F)F)c1)N1c2ccccc2-n2cccc2C1c1cccnc1 (stereo not drawn)	inactive
CC(C)(C)c1cc2c(O)c(c1)C(c1ccccc1)c1cc(C(C)(C)C)cc(c1O)Cc1cc(C(C)(C)C)cc(c1O)C(c1ccccc1)c1cc(C(C)(C)C)cc(c1O)C2 (stereo not drawn)	inactive
O=C(O)CC1C(=O)OC2C3COC(=O)c4cc(O)c(O)c(O)c4-c4c(cc(O)c(O)c4O)C(=O)OC2C(OC(=O)c2cc(O)c(O)c4c2C1C(O)C(=O)O4)C(OC(=O)c1cc(O)c(O)c(O)c1)O3 (stereo not drawn)	inactive
Nc1ccccc1SC(/C=C/NNC1=NN=C(c2ccccc2)C(c2ccccc2)N1)c1ccccc1 (stereo not drawn)	inactive

Prompt: What did this assay record as the result for Nc1ccc(C(=O)CC(N)C(=O)O)cc1O (stereo not drawn) ?
Response: inactive

Prompt: Next compound: O=C(O)CCO/N=C1/C(=C2/C(=O)Nc3ccccc32)Nc2ccccc21
Response: inactive

###

tested on: OVCAR-4; test: NCI tumour cell line growth inhibition, 48 h
Calls of active or inactive are those of the source. Cut-off read from the data, not from the text of the source: active = GI50 up to about 1.1 µM and inactive = higher.
Reported GI50 values for the following molecules.

Below, each entry is followed by its recorded GI50 result.
In [3]: df
Out[3]:
                                   molecule  recorded_endpoint                  val
0  COC1=CC(=O)C2=C(C[C@@]3(C)C(=C2)C(CO)=CC[C@H]3O)C1=O               GI50   17.9 µM (inactive)
1  CCOC(=O)/C=C(\C(=O)OCC)n1cc(C)c(=O)n(Cc2cnnn2COCCOC(C)=O)c1=O               GI50   15.6 µM (inactive)
2  CC12O[C@]3([C@H](C(=O)N4CCOC43C)[C@H]1Cl)[C@H]1O[C@H]12 (some centres not stated)               GI50  > 100 µM (inactive)
3  O=C1c2ccccc2-c2c1c(-c1ccccc1)c1n2C2(C(=O)c3ccccc3C2=O)C2C(=O)N(c3ccccc3)C(=O)C12 (configuration not stated)               GI50   31.4 µM (inactive)
4  COc1ccc(/C=C(\C(=O)OCC(C)C)c2ccc(OC)c(OC)c2)cc1OC               GI50  > 100 µM (inactive)
5          CN(/N=C/c1ccccc1O)c1ccc2ccccc2n1               GI50   20.3 µM (inactive)

Prompt: Can you look up GI50 on OVCAR-4 for CCCC(=O)/C=C/S/C=C/C(=O)CCC ?
Response: 4.42 µM (inactive)

###

test system: OVCAR-4; assay: NCI tumour cell line growth inhibition, 48 h
Calls of active or inactive are those of the source. No stated cut-off is given here; in the data, active = GI50 up to about 1.1 µM and inactive = higher.
Write down one outcome, taken from T for active, F for inactive

Check out these entries, answers already filled in.
In [3]: df
Out[3]:
                                   molecule  assayed_system  assigned_class
0  C=CCOC(=O)N1c2ccc(O)cc2[C@@]23O[C@@]24[C@@H]1C#C/C=C\C#C[C@]3(O)C(=O)C[C@@H]4C         OVCAR-4               T
1  COC(=O)CN1Cc2cc(C)cc(c2O)CN(CC(=O)OC)Cc2cc(C)cc(c2O)CN(CC(=O)OC)Cc2cc(C)cc(c2O)CN(CC(=O)OC)Cc2cc(C)cc(c2O)C1         OVCAR-4               F
2  COc1ccc(C[C@H](N)C(=O)N2C[C@H](CO)C[C@H](n3cnc4c(N(C)C)ncnc43)C2)cc1         OVCAR-4               F
3                COC(=O)C1=CNC(C(=O)OC)=NN1         OVCAR-4               F
4  O=C1CSC(C(/N=N/c2ccc(Cl)cc2)c2nc3ccccc3[nH]2)=N1 (centres undefined)         OVCAR-4               F

Prompt: What did this assay record as the result for OCC(CCc1c[nH]c2ccccc12)c1c[nH]c2ccccc12 (centres undefined) ?
Response: F

###

tested on: U-251; experiment: NCI tumour cell line growth inhibition, 48 h
The source made the active and inactive calls. No stated cut-off is given here; in the data, active = GI50 up to about 1.1 µM and inactive = higher.
recorded endpoint: GI50

Below, each entry is followed by its recorded GI50 result.
compound	assayed system	val
COc1ccc(N2C(=O)c3c(c4[nH]c5ccc(OC)cc5c4c4ccc(C(C)(C)C)cc34)C2=O)cc1	U-251	> 100 µM (inactive)
COc1ccc(Cn2c3ccc([N+](=O)[O-])cc3c(=O)n2Cc2ccccn2)cc1	U-251	> 100 µM (inactive)
COC1=C(OC)C(=O)C(Cc2c(C)nc3sccn23)=C(C)C1=O	U-251	15.6 µM (inactive)
O=C1C=CC(=O)C1(Br)Br	U-251	12.3 µM (inactive)
CC1=NC(C)(COC(=O)C2(C)NC(C)(CO)CO2)COC1=O (centres undefined)	U-251	> 100 µM (inactive)

Prompt: Can you look up GI50 on U-251 for CC(C)(C)OC(=O)N1[C@@H]2Cc3ccc(N)cc3[C@@]1(C)c1ccccc12 ?
Response: 17 µM (inactive)

Prompt: Next compound: NC(=S)N/N=C1/CN(c2ccc(Cl)c(Cl)c2)CC(=O)C1c1nc2ccccc2s1 (centres undefined)
Response: 67.1 µM (inactive)

###

system: MDA-MB-231; test: NCI tumour cell line growth inhibition, 48 h
Activity calls are given as the source filed them. Rule as the data show it: active = GI50 up to about 1.1 µM and inactive = higher.
Write down one outcome, taken from active, inactive

Check out these entries, answers already filled in.
                                   molecule  assigned_class
0           c1ccc2c(c1)-c1ccccc1C2NC1=NCCO1        inactive
1  CCOc1ccc2c(ccc(/C=C/c3cc(C)c4cccnc4c3O)[n+]2C)c1          active
2   Cc1ccc(NC(=S)N/N=C2\C(=O)Nc3ccccc32)cc1        inactive
3      COc1cc2c(cc1OC)C(c1ccccc1CCCCl)=NCC2        inactive
4  C=C1CC[C@]2(C)[C@H](CC[C@@]34C[C@@H](CC[C@H]32)[C@@H](C(=O)O)C4)C1(C)C        inactive

Prompt: What did this assay record as the result for CS(=O)(=O)Nc1ccc2c(c1)N(S(C)(=O)=O)CC2COS(C)(=O)=O (stereo not given) ?
Response: inactive

Prompt: Next molecule: CC(C)(C)OC(=O)NC1CCCCC1NC(=O)C(=O)NC1CCCCC1NC(=O)OC(C)(C)C (stereo not given)
Response: inactive

###

Reported GI50 values for the following compounds.
test system: SNB-19; experiment: NCI tumour cell line growth inhibition, 48 h
Calls of active or inactive are those of the source. Cut-off read from the data, not from the text of the source: active = GI50 up to about 1.1 µM and inactive = higher.

Below, each entry is followed by its recorded GI50 result.
                                   compound                  val
0  COc1ccc(-c2c(C#N)c(N)n(C3OCC(OC(C)=O)C(OC(C)=O)C3OC(C)=O)c(=S)c2C#N)cc1 (stereo unspecified)  > 100 µM (inactive)
1  CCOc1ccc2c(ccc(/C=C/c3cc(C)c4cccnc4c3O)[n+]2C)c1    0.594 µM (active)

Prompt: Endpoint output: GI50 of O=C1Nc2ccc(Cl)c(I)c2C1=O . Value?
Response: 24.5 µM (inactive)

Prompt: Next compound: CN(/N=C/c1ccccc1O)c1ccc2ccccc2n1
Response: 16.7 µM (inactive)

###

tested on: HCT-116; assay: NCI tumour cell line growth inhibition, 48 h
The source made the active and inactive calls. No stated cut-off is given here; in the data, active = GI50 up to about 1.1 µM and inactive = higher.
Write down one outcome, taken from TRUE = active, FALSE = inactive

Check out these entries, answers already filled in.
molecule	assigned class
Cc1c(N)nc([C@H](CC(N)=O)NC[C@H](N)C(N)=O)nc1C(=O)N[C@H](C(=O)N[C@H](C)[C@@H](O)CC(=O)N[C@H](C(=O)NC(O[C@@H]1O[C@@H](C)[C@@H](N)[C@@H](O)[C@H]1O)C(O)c1nc(-c2nc(C(=O)NCCC[S+](C)C)cs2)cs1)[C@@H](C)O)[C@H](O[C@@H]1O[C@@H](CO)[C@@H](O)[C@H](O)[C@@H]1O[C@H]1O[C@H](CO)[C@@H](O)[C@H](OC(N)=O)[C@@H]1O)c1c[nH]cn1 (stereo partly drawn)	FALSE
CC1=CCCC(OC(N)=O)C1 (stereo not drawn)	FALSE
N#C/C(C(=O)Nc1ccc(Cl)cc1)=C(/N)N1CCCCC1	FALSE

Prompt: What did this assay record as the result for O=C(Nc1ccccc1)OCc1nc2c([nH]1)C(=O)C=CC2=O ?
Response: FALSE

Prompt: Next molecule: O=C(O)c1ccccc1NC(=S)c1ccccc1
Response: FALSE

Prompt: Next molecule: COc1ccc2c(c1)nc1n2C(N)=Nc2ccccc2S1
Response: FALSE

Prompt: Next molecule: C=CC(O)(CBr)CCC(Br)C(C)(C)Cl (stereo not drawn)
Response: FALSE

Prompt: Next molecule: COc1ccccc1/[N+]([O-])=C/c1ccccc1OC(=S)S
Response: FALSE
